Hey, just so you know, these numbers are from the RepoRT retention time repository (doi:10.1016/j.chroma.2014.05.003).

assay info: RP, Agilent ZORBAX Eclipse Plus C18, 50 × 4.6 mm, 1.8 µm, 0.5 mL/min, estimated dead time 1.1 min; A: water + 0.1% formic acid; B: acetonitrile + 0.1% formic acid; gradient (min/%B) 0/10 3/10 25/100 28/100
stated conditions: stereoisomer not certain
readout type: LC retention time (min)
Kindly answer with a numeric value in min, unit omitted.

compound | LC retention time, min
CON=C(C(=O)OC)c1ccccc1COc1ccccc1C | 18
O=C(NN=Cc1ccc([N+](=O)[O-])o1)c1ccc(O)cc1 | 9.51
CN(C(=O)COc1nc2ccccc2s1)c1ccccc1 | 16

Give recorded LC retention time. COc1cc(C2c3cc4c(cc3C(OC3OC5COC(C)OC5C(O)C3O)C3COC(=O)C23)OCO4)cc(OC)c1OP(=O)(O)O (configuration not stated)
16.1

Give recorded LC retention time. CNC(C)Cc1ccccc1 (configuration not stated)
4.88

Give recorded LC retention time. COc1cc(Cc2cnc(N)nc2N)cc(OC)c1OC
5.6

Give recorded LC retention time. COC(=O)Nc1nc2ccccc2[nH]1
3.27

* * *

Recorded LC retention time values for a group of compounds are listed next.
assay info: RP, Agilent ZORBAX Eclipse Plus C18, 50 × 4.6 mm, 1.8 µm, 0.5 mL/min, estimated dead time 1.1 min; A: water + 0.1% formic acid; B: acetonitrile + 0.1% formic acid; gradient (min/%B) 0/10 3/10 25/100 28/100
stated conditions: stereoisomer not certain
Kindly answer with a numeric value in min, unit omitted.

Take a look at these entries with their results.
compound | scale unit | LC retention time
CCCCCCCCCCCCCC[N+](C)(C)Cc1ccccc1 | min | 18.4
COP(=S)(OC)Oc1ccc([N+](=O)[O-])cc1 | min | 16.3
CC12CCC3C(CCC4=CC(=O)CCC43C)C1CCC2=O (stereo not given) | min | 14.8

# next compound below
Give recorded LC retention time. CCOC(=O)NCCOc1ccc(Oc2ccccc2)cc1
17

* * *

assay info: RP, Agilent ZORBAX Eclipse Plus C18, 50 × 4.6 mm, 1.8 µm, 0.5 mL/min, estimated dead time 1.1 min; A: water + 0.1% formic acid; B: acetonitrile + 0.1% formic acid; gradient (min/%B) 0/10 3/10 25/100 28/100
stated conditions: stereoisomer not certain
// Condition not met strictly below 9 min in LC retention time; Condition met otherwise

Study these solved cases before continuing.
compound | category label
CNC(C)Cc1ccc2c(c1)OCO2 (stereo unspecified) | Condition not met
CCC(C)C(=O)OC1CCC=C2C=CC(C)C(CCC3CC(O)CC(=O)O3)C21 (stereo unspecified) | Condition met
CC12CCC3c4ccc(O)cc4CCC3C1CC(O)C2O (stereo unspecified) | Condition met
COCc1cnc(C2=NC(C)(C(C)C)C(=O)N2)c(C(=O)O)c1 (stereo unspecified) | Condition not met

Next:
Assess whether reported LC retention time for CC1(C)SC2C(NC(=O)Cc3ccccc3)C(=O)N2C1C(=O)O (stereo unspecified) sits at 9 min or higher.
Condition met
